# target-desc: A2B receptor (Homo sapiens)
# Sequence (P29275 1-332): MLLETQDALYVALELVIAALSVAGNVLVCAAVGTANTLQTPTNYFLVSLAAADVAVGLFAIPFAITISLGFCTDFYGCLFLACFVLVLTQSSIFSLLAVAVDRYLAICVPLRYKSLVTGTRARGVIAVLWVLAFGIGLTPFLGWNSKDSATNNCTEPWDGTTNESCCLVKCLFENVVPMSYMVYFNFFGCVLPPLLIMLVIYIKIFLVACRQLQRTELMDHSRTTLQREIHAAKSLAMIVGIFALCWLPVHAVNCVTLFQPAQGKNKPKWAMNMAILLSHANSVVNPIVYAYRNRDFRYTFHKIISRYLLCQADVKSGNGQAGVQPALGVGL
# experiment: A2bR antagonism IC50, cAMP TR-FRET in HEK-293 cells, high concentration of adenosine (30 μM);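 further: compounds preincubated 10 min with cells, then adenosine stimulation 30 min at room temperature in buffer with Rolipram 100 µM and EHNA 30 µM, TR-FRET read after 1 h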
# conditions: A2BR IC50 (nM) (@30 μM Adenosine), HEK-293 cells expressing A2B receptor; agonist adenosine 30 μM; 2% HSA; inhibition of cAMP
Decide using IC50 alone. Strictly below 2000 nM: criterion met. Equal to or above 2000 nM: criterion not met.

hey, is IC50 for Cc1nn2c(N)c(C#N)c(NCCc3cccn(C)c3=O)nc2c1Cl [Example 87] lower than 2000 nM or not?
criterion met

hey, is IC50 for CCc1c(C)nn2c(N)c(C#N)c(NCCc3ccn(C4COCC4CO)n3)nc12 (single isomer, unassigned; (+)) [Example 122a] lower than 2000 nM or not?
criterion met

hey, is IC50 for CCc1c(C)nn2c(N)c(C#N)c(NCCc3ccn(C4CC(CO)C4)n3)nc12 (stereo not drawn) [Example 123] lower than 2000 nM or not?
criterion met

hey, is IC50 for Cc1nn2c(N)c(C#N)c(NCCc3ccn(C4(CN)CC4)n3)nc2c1Cl [Example 68] lower than 2000 nM or not?
criterion not met

hey, is IC50 for CCc1c(C)nn2c(N)c(C#N)c(NCCc3cccc(C(O)C(F)(F)F)n3)nc12 (stereo not drawn) [Example 135] lower than 2000 nM or not?
criterion not met

hey, is IC50 for CCc1c(C)nn2c(N)c(C#N)c(NCCc3cc(C)n(C4(CO)CC4)n3)nc12 [Example 76] lower than 2000 nM or not?
criterion met

hey, is IC50 for CCc1c(C)nn2c(N)c(C#N)c(NCCc3ccn(C(C)CO)n3)nc12 (stereo not drawn) [Example 81] lower than 2000 nM or not?
criterion met

hey, is IC50 for CCCc1c(C)nn2c(N)c(C#N)c(NCCc3ccn(C4COCC4CO)n3)nc12 (single isomer, unassigned; (+)) [Example 160a] lower than 2000 nM or not?
criterion met

hey, is IC50 for CCCc1c(C)nn2c(N)c(C#N)c(NCCc3ccn(C4COCC4CO)n3)nc12 (single isomer, unassigned; (-)) [Example 160b] lower than 2000 nM or not?
criterion met

hey, is IC50 for CCc1c(C)nn2c(N)c(C#N)c(NCCc3cccc(CO)n3)nc12 [Example 45] lower than 2000 nM or not?
criterion met

hey, is IC50 for CCc1c(C)nn2c(N)c(C#N)c(NCCc3cccc(C(C)O)n3)nc12 (racemic) [Example 100] lower than 2000 nM or not?
criterion met

hey, is IC50 for CCc1c(C)nn2c(N)c(C#N)c(NCCc3cccn(CCCN)c3=O)nc12 [Example 136] lower than 2000 nM or not?
criterion not met

hey, is IC50 for Cc1nn2c(N)c(C#N)c(NCCc3ccn(C4CCC4CO)n3)nc2c1Br (stereo not drawn) [Example 130] lower than 2000 nM or not?
criterion not met

hey, is IC50 for Cc1nn2c(N)c(C#N)c(NCCc3ccn(C4(CO)CC4)n3)nc2c1CC1CC1 [Example 74] lower than 2000 nM or not?
criterion met

hey, is IC50 for Cc1nn2c(N)c(C#N)c(NCCc3ccn(C4(CNCCO)CC4)n3)nc2c1Cl [Example 98] lower than 2000 nM or not?
criterion not met
